Provide the recorded ADCC cytotoxic activity (51Cr release) on BT-474 for the entries that follow.
system.under.test: T1, CAPRIN-1 protein expressed on the membrane surface of human cancer cells (human, UniProt Q14444 2-709)
T1 sequence (looked up): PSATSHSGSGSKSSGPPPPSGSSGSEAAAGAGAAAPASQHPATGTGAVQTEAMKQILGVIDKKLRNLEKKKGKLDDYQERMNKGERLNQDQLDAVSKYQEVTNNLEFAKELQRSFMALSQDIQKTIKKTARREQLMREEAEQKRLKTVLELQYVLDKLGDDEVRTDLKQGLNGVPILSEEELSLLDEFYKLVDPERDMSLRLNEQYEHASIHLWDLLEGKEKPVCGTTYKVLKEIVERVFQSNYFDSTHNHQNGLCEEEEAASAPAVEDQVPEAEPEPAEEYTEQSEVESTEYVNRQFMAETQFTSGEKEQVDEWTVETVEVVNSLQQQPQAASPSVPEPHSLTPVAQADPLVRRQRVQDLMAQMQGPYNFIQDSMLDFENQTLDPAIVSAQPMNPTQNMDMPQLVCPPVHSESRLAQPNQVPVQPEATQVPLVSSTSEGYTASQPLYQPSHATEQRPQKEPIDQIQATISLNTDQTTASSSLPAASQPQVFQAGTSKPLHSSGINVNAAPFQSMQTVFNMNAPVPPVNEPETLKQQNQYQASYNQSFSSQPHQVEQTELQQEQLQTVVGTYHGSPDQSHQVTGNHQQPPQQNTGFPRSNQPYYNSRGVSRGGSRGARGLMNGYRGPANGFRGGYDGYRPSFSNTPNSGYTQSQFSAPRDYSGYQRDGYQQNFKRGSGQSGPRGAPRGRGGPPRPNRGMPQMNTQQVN
experimental.details: cell-based or functional assay

humanized antibody #5 (antibody, V domains shown) VH: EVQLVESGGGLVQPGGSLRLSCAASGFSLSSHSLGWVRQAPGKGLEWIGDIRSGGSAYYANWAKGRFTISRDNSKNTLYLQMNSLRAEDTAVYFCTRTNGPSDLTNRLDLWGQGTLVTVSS VL: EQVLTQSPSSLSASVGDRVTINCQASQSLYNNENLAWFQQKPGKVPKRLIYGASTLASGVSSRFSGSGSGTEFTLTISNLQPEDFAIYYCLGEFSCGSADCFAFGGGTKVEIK :: ≥ 50%

Moving on to the next binder.
Indicate its recorded ADCC cytotoxic activity (51Cr release) on BT-474; the binder in question is humanized antibody #7 (antibody, V domains shown) VH: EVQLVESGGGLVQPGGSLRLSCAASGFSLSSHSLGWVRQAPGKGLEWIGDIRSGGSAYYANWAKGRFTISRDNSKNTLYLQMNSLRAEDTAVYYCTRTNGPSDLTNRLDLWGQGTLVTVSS VL: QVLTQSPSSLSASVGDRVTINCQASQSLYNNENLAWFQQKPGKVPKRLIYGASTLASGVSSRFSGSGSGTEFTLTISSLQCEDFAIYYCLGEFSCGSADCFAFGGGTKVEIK
≥ 54%

Ref: patent US20160297889A1
